List of growth inhibition values.
Experiment: NCI Yeast Anticancer Drug Screen. Data for the cln2 rad14 strain (AID 165);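 note: 0% = growth equal to vehicle treated cultures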
Conditions: S. cerevisiae cln2 rad14 strain, at 50.0 µM (retest, dose inferred, filed as 5.0), hits give high values
This is part of a sample that, as a whole, favours compounds with a hit. Of some 79,000 tested, about 15% had one in any assay.
// return numeric value only (unit: %, not printed)

Illustrative cases are given below, each with its answer.
Given the compound "CCn1c2ccccc2n2c(=O)cc(-c3ccccc3)c(C#N)c12" , what is its reported growth inhibition?
-9

So what's the measured growth inhibition for this one? "O=C1c2cccc3cc([N+](=O)[O-])cc(c23)C(=O)N1O"
35

Further cases:
Can you share its growth inhibition? I mean this compound: "CCN(CC)CCOc1c(Cl)c(Cl)c(Cl)c(Cl)c1Cl"
80

Find the recorded growth inhibition belonging to "COc1ccc(/C(O)=C/c2nc3ccc([N+](=O)[O-])cc3[nH]c2=O)cc1" and report it.
77

If you can, please state the reported growth inhibition value of "Nc1ccc2c(c1)C(=O)c1ccccc1-2" .
7

Data origin: PubChem BioAssay (NCI)
